Consider compounds characterized by their IC50 with UniProt:P52333.
Sequence (P52333 whole entry): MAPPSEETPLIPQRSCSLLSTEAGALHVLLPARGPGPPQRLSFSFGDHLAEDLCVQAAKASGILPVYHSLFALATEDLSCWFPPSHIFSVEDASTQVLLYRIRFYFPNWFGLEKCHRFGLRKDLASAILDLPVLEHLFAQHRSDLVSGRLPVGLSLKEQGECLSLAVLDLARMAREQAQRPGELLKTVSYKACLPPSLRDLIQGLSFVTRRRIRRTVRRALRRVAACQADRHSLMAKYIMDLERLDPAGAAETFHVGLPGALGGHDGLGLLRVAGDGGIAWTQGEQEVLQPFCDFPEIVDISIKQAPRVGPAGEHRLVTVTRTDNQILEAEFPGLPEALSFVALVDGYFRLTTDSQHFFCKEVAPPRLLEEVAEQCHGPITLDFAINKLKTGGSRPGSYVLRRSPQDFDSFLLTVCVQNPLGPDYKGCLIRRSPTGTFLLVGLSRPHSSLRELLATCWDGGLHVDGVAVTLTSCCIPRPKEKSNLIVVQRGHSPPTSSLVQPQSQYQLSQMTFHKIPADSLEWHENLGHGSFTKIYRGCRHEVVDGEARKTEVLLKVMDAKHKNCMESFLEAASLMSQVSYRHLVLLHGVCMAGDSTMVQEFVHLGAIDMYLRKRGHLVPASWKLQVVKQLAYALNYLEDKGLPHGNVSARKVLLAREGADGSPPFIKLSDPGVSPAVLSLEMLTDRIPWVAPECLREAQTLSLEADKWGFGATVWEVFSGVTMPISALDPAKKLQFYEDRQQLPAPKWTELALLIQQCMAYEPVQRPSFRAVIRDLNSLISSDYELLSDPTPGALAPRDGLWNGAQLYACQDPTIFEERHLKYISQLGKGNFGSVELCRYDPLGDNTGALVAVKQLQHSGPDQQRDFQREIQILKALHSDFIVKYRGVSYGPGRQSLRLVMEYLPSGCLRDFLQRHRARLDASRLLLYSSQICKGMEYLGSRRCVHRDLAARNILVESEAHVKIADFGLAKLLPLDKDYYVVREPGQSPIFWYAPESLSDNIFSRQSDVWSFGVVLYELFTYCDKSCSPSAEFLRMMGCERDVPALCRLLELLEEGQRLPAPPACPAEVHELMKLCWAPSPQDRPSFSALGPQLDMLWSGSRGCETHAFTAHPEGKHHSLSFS
Measured quantity: IC50 (nM)

Worked set:
CS(=O)(=O)Nc1ccc(-c2ccnc(Nc3ccc(CN4CCC(O)CC4)cc3)n2)cc1 ... 1620
COc1cc(-c2ccnc(Nc3ccc(N4CCOCC4)cc3)n2)ccc1O ... 62
CC(C)(C#N)NC(=O)c1ccc(-c2ccnc(Nc3ccc(N4CCOCC4)cc3)n2)cc1 ... 3910

[A] COc1cc(-c2ccnc(Nc3ccc(N4CCOCC4)cc3)n2)ccc1C(=O)NCC#N
[B] N#CCNC(=O)c1ccc(-c2ccnc(Nc3cccc(N4CCOCC4)c3)n2)cc1
[C] CN1CCN(Cc2cccc(Nc3nccc(-c4ccc(NS(C)(=O)=O)cc4)n3)c2)CC1
[D] CS(=O)(=O)Nc1ccc(-c2ccnc(Nc3ccc(N4CCOCC4)cc3)n2)cc1
Task item: Ordering criterion: IC50; begin with the maximum. Please, when replying, give the labels in the order that was requested.
Reply: B, C, D, A

====

Experiment: Apparent permeability from basolateral to apical side in human Caco-2 cells
Type: ADME, cell-based
Measured quantity: Papp B→A (×10⁻⁶ cm/s)

CC(C)NCC(O)COc1cccc2ccccc12 (centres undefined) [PROPRANOLOL] ... 48.8

[1] N#CCNC(=O)c1ccc(-c2ccnc(Nc3ccc(N4CCOCC4)cc3)n2)cc1 [MOMELOTINIB]
[2] OC[C@@H](O)[C@@H](O)[C@H](O)[C@H](O)CO [MANNITOL]
[3] CS(=O)(=O)Nc1ccc(-c2ccnc(Nc3ccc(CN4CCS(=O)(=O)CC4)cc3)n2)cc1
Task item: Order the 3 compounds from highest to lowest Papp B→A. Response field: labels, in requested order.
Reply: 3, 1, 2

====

Experiment: Apparent half life in Sprague-Dawley rat at 18 mg/kg, po
Format: ADME, organism-based
Design: dose 18 mg/kg, route oral
Settings: in vivo
Measured quantity: half-life (h)
Give a bare numeral; the unit h is implied.

Task item: Value lookup for half-life; key = N#CCNC(=O)c1ccc(-c2ccnc(Nc3ccc(N4CCOCC4)cc3)n2)cc1 [MOMELOTINIB]
Reply: 2.4

====

Test: cells
Details: Mus musculus, CTLL-2, 72 h
Description: Antiproliferative activity against IL-2-stimulated mouse CTLL-2 cells expressing JAK1/JAK3 after 72 hrs by alamar blue assay
Measured quantity: IC50 (nM)

Reference set, count: 2
CS(=O)(=O)Nc1ccc(-c2ccnc(Nc3cccc(CN4CCC(O)CC4)c3)n2)cc1 ... 6760
CN1CCN(Cc2ccc(Nc3nccc(-c4ccc(NS(C)(=O)=O)cc4)n3)cc2)CC1 ... 1550

[1] Cc1cc(-c2ccnc(Nc3ccc(N4CCOCC4)cc3)n2)ccc1C(=O)NCC#N
[2] COc1cc(-c2ccnc(Nc3ccc(N4CCOCC4)cc3)n2)ccc1C(=O)NCC#N
[3] N#CCNC(=O)c1ccc(-c2ccnc(Nc3ccc(N4CCOCC4)c(F)c3)n2)cc1
[4] N#CCNC(=O)c1ccc(-c2ccnc(Nc3ccc(N4CCOCC4)c(C(F)(F)F)c3)n2)cc1
Task item: Could you please sort these 4 entries by IC50 from high to low? # answer = labels listed in requested order
Reply: 4, 1, 3, 2

====

Assay: in vitro
Conditions: human, Caco-2
Description: Apparent permeability from apical to basolateral side in human Caco-2 cells
Measured quantity: Papp A→B (×10⁻⁶ cm/s)

CC(C)NCC(O)COc1cccc2ccccc12 (centres undefined) ... 38.7

[P] CS(=O)(=O)Nc1ccc(-c2ccnc(Nc3ccc(CN4CCS(=O)(=O)CC4)cc3)n2)cc1
[Q] N#CCNC(=O)c1ccc(-c2ccnc(Nc3ccc(N4CCOCC4)cc3)n2)cc1
[R] OC[C@@H](O)[C@@H](O)[C@H](O)[C@H](O)CO
Task item: Would you mind ranking these compounds by ascending Papp A→B? Dear reader, please state the labels in the requested order.
Reply: R, P, Q

====

Experiment: Oral bioavailability in Sprague-Dawley rat at 21 mg/kg
Format: ADME, organism-based
Settings: in vivo
Measured quantity: bioavailability (%)
Reply numerically in %, unit not repeated.

Task item: // returns reported bioavailability for input CS(=O)(=O)Nc1ccc(-c2ccnc(Nc3ccc(CN4CCS(=O)(=O)CC4)cc3)n2)cc1
Reply: 5.4

====

Assay: Blood clearance in Sprague-Dawley rat at 21 mg/kg, iv
Format: ADME, organism-based
Parameters: dose 21 mg/kg, route intravenous
Measured quantity: clearance (mL/min/kg)
// return numeric value only (unit: mL/min/kg, not printed)

Task item: Which clearance value is on record for CS(=O)(=O)Nc1ccc(-c2ccnc(Nc3ccc(CN4CCS(=O)(=O)CC4)cc3)n2)cc1 ?
Reply: 36.6

====

Tested on: BaF3
Assay: Antiproliferative activity against mouse BAF3 cells expressing wild type JAK2 kinase after 72 hrs by alamar blue assay in presence of IL-3
Type: functional, cell-based
Conditions: BaF3, 72 h
Measured quantity: IC50 (µM)
Please respond with the number in µM and leave the unit unwritten.

Task item: Suppose we examine the compound N#CCNC(=O)c1ccc(-c2ccnc(Nc3ccc(N4CCOCC4)cc3)n2)cc1 [MOMELOTINIB] ; what IC50 value has been reported?
Reply: 1.43

====

Biological target: Tyrosine-protein kinase JAK2 (Homo sapiens, UniProt O60674)
Sequence (O60674 whole entry): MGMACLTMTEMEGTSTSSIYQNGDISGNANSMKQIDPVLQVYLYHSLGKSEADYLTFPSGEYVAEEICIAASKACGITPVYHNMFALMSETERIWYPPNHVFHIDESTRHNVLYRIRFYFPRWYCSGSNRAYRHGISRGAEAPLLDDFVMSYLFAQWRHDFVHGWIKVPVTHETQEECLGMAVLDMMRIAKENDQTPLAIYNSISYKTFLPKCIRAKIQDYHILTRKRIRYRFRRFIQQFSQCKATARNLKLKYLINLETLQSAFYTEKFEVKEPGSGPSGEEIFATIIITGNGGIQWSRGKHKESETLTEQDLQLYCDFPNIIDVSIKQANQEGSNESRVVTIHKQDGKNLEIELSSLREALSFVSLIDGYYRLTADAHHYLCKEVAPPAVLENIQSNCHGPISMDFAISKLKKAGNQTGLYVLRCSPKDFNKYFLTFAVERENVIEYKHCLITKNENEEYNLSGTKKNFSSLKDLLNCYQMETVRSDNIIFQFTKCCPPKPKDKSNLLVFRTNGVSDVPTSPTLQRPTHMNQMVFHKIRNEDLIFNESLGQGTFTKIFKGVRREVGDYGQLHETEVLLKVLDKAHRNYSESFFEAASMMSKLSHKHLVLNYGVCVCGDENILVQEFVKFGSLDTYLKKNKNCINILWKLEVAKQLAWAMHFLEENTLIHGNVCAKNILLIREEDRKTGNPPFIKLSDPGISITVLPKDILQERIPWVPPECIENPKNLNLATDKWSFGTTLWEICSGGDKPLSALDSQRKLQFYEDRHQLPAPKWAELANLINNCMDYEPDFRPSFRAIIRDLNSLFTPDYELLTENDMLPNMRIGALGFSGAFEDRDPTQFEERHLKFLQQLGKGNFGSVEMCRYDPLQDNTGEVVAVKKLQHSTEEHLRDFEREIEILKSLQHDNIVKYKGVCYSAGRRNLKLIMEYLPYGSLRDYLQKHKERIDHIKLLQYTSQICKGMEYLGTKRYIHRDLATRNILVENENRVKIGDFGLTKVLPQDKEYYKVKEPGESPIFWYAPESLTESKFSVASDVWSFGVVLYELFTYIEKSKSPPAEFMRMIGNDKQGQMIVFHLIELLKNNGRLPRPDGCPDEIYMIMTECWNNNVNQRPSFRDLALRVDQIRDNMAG
pIC50: −log10 of the molar value.
Measured quantity: pIC50

N#CCNC(=O)c1cccc(-c2ccnc(Nc3ccc(N4CCOCC4)cc3)n2)c1 ... 6.26

[I] CS(=O)(=O)Nc1ccc(-c2ccnc(Nc3ccc(CN4CCS(=O)(=O)CC4)cc3)n2)cc1
[II] Cc1cc(-c2ccnc(Nc3ccc(N4CCOCC4)cc3)n2)cc(C)c1O
Task item: Lab note: check whether I or II has the lower measured pIC50. Choose, then provide that item's label.
Reply: II

====

Test system: BaF3
Assay: cells
Settings: Mus musculus, BaF3, 72 h
Description: Antiproliferative activity against mouse BAF3 cells expressing TEL-JAK3 kinase after 72 hrs by alamar blue assay
Measured quantity: IC50 (µM)

Known IC50 results, listed for orientation:
N#CCNC(=O)c1ccc(-c2ccnc(Nc3cccc(N4CCOCC4)c3)n2)cc1 ... 7.45
N#CCNC(=O)c1ccc(-c2ccnc(Nc3ccc(N4CCOCC4)c(C(F)(F)F)c3)n2)cc1 ... 1.71
Cc1cc(-c2ccnc(Nc3ccc(N4CCOCC4)cc3)n2)ccc1C(=O)NCC#N ... 7.57
COc1cc(-c2ccnc(Nc3ccc(N4CCOCC4)cc3)n2)ccc1O ... 2.55
N#CCNC(=O)c1ccc(-c2ccnc(Nc3ccc(N4CCOCC4)c(F)c3)n2)cc1 ... 3.28
CCN(CC)CCCOc1ccc(Nc2nccc(-c3ccc(C(=O)NCC#N)cc3)n2)cc1 ... 1.1
N#CCC(=O)Nc1ccc(-c2ccnc(Nc3ccc(N4CCOCC4)cc3)n2)cc1 ... 4.21
N#CCNC(=O)c1ccc(-c2ccnc(Nc3ccc(CN4CCOCC4)cc3)n2)cc1 ... 9.51

[P] N#CCNC(=O)c1ccc(-c2ccnc(Nc3ccc(CN4CCS(=O)(=O)CC4)cc3)n2)cc1
[Q] CS(=O)(=O)Nc1ccc(-c2ccnc(Nc3ccc(CN4CCS(=O)(=O)CC4)cc3)n2)cc1
[R] Cc1cnc(Nc2ccc(N3CCOCC3)cc2)nc1-c1ccc(C(=O)NCC#N)cc1
[S] CN1CCN(c2ccc(Nc3nccc(-c4ccc(C(=O)NCC#N)cc4)n3)cc2)CC1
Task item: Place the items in sequence of falling IC50. Note for the reader: the ranking is given by listing the labels in the order requested.
Reply: P, R, Q, S

[1] N#CCNC(=O)c1ccc(-c2ccnc(Nc3ccc(N4CCOCC4)cc3)n2)cc1 [MOMELOTINIB]
[2] CS(=O)(=O)Nc1ccc(-c2ccnc(Nc3ccc(N4CCC(O)CC4)cc3)n2)cc1
Task item: # compare IC50 for 1 vs 2 ; return the one with the smaller value Provide the label of your selected option as the answer.
Reply: 1
(1: 2.43 µM, 2: 6.55 µM)

[a] CC(C)(C#N)NC(=O)c1ccc(-c2ccnc(Nc3ccc(N4CCOCC4)cc3)n2)cc1
[b] CS(=O)(=O)Nc1ccc(-c2ccnc(Nc3ccc(CN4CCCCC4)cc3)n2)cc1
Task item: Could you point out whether the larger IC50 belongs to a or to b ? Use the label to indicate which entry you chose.
Reply: a

[A] CCN1CCN(Cc2ccc(Nc3nccc(-c4ccc(C(=O)NCC#N)cc4)n3)cc2)CC1
[B] N#CCNC(=O)c1ccc(-c2ccnc(Nc3ccc(N4CCSCC4)cc3)n2)cc1
Task item: Identify the entry with the smaller IC50: A or B . Label of pick, please.
Reply: A

====

Assay: Tmax in Sprague-Dawley rat at 18 mg/kg, po
Type: ADME, organism-based
Design: dose 18 mg/kg, route oral
Details: in vivo
Measured quantity: Tmax (h)
Only the number, expressed in h, is required.

Task item: Bench note: what Tmax did N#CCNC(=O)c1ccc(-c2ccnc(Nc3ccc(N4CCOCC4)cc3)n2)cc1 show?
Reply: 4

====

Experiment: cells
Details: Mus musculus, CTLL-2, 72 h
pIC50: −log10 of the molar value.
Measured quantity: pIC50

# count of solved cases: 2
N#CCNCc1cccc(-c2ccnc(Nc3ccc(N4CCOCC4)cc3)n2)c1 ... 5.10
CS(=O)(=O)Nc1ccc(-c2ccnc(Nc3ccc(CN4CCOCC4)cc3)n2)cc1 ... 5.78

[I] CCN1CCN(Cc2ccc(Nc3nccc(-c4ccc(C(=O)NCC#N)cc4)n3)cc2)CC1
[II] N#CCC(=O)Nc1ccc(-c2ccnc(Nc3ccc(N4CCOCC4)cc3)n2)cc1
Task item: Hey, which is lower on measured pIC50, I or II ? Pick one; state its label.
Reply: I

[A] N#CCNC(=O)c1ccc(-c2ccnc(Nc3cccc(N4CCOCC4)c3)n2)cc1
[B] CN1CCN(c2ccc(Nc3nccc(-c4ccc(C(=O)NCC#N)cc4)n3)cc2)CC1
Task item: Given A and B , report the one with the higher recorded pIC50. Returns: label corresponding to the selected item.
Reply: B
(B: 5.74, A: 5.42)

[1] N#CCNC(=O)c1ccc(-c2ccnc(Nc3ccc(CN4CCOCC4)cc3)n2)cc1
[2] CS(=O)(=O)Nc1ccc(-c2ccnc(Nc3ccc(CN4CCS(=O)(=O)CC4)cc3)n2)cc1
[3] CS(=O)(=O)Nc1ccc(-c2ccnc(Nc3cccc(CN4CCCC4)c3)n2)cc1
Task item: Rank by pIC50 (largest to smallest). List the labels in the requested order.
Reply: 3, 2, 1

[I] CN(CC#N)C(=O)c1ccc(-c2ccnc(Nc3ccc(N4CCOCC4)cc3)n2)cc1
[II] CS(=O)(=O)Nc1ccc(-c2ccnc(Nc3ccc(N4CCC(O)CC4)cc3)n2)cc1
[III] CS(=O)(=O)Nc1ccc(-c2ccnc(Nc3ccc(N4CCOCC4)cc3)n2)cc1
[IV] N#CCC(=O)Nc1cccc(-c2ccnc(Nc3ccc(N4CCOCC4)cc3)n2)c1
Task item: Ascending sort, pIC50. Hello, could you send the labels back in the order asked? Thank you.
Reply: IV, I, II, III

[1] CN1CCN(Cc2cccc(Nc3nccc(-c4ccc(NS(C)(=O)=O)cc4)n3)c2)CC1
[2] Cc1cnc(Nc2ccc(N3CCOCC3)cc2)nc1-c1ccc(C(=O)NCC#N)cc1
[3] CS(=O)(=O)Nc1ccc(-c2ccnc(Nc3cccc(CN4CCOCC4)c3)n2)cc1
Task item: Put the items in order so that reported pIC50 rises from first to last. Arrange the labels as the request states and list them.
Reply: 1, 3, 2
(1: 5.29, 3: 5.57, 2: 6.62)

[P] CCN(CC)CCCOc1ccc(Nc2nccc(-c3ccc(C(=O)NCC#N)cc3)n2)cc1
[Q] COc1cnc(Nc2ccc(N3CCOCC3)cc2)nc1-c1ccc(C(=O)NCC#N)cc1
Task item: From the items above, decide which of P and Q has the lower pIC50 reading. Mark your selection by writing its label.
Reply: Q
(Q: 5.21, P: 5.43)
